Values compiled from patent US20240209076A1.

- TEST SYSTEM: T1, human IL-6 (human, UniProt P05231 30-212)
- T1 construct: IL-6 flowed over captured antibodies
- T1 sequence (P05231 30-212 limits assumed): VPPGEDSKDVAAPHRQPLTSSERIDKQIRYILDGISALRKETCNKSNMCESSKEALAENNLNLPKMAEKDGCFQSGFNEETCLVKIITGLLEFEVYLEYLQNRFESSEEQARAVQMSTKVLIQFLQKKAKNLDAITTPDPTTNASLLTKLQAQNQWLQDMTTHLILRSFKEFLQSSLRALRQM
- TEST METHOD NOTES: SPR Biacore, supernatant Ab on Protein A chip, 37 C
QUANTITY NAME: Kd (nM)
Report the figure in nM without appending any unit label.

Please review the entries below; each comes with its answer.
anti-IL-6 antibody, heavy chain I51E, G66D / light chain M32L, M50D, N52S, M88Q (antibody, IgG1, V domains shown, Full IgG1 (Expi293); VL = variant III) VH: EVQLVESGGGLVQPGGSLRLSCAASGFTFSPFAMSWVRQAPGKGLEWVAKESPGGSWTYYSDTVTDRFTFSLDTSKSTAYLQMNSLRAEDTAVYYCARQLWGYYALDIWGQGTLVTVSS VL: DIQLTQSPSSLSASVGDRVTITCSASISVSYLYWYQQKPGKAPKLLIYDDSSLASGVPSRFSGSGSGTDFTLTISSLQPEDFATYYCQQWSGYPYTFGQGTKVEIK    2.14
anti-IL-6 antibody, heavy chain T65G, G66D / light chain M32L, M50D, N52S, M88Q (antibody, IgG1, V domains shown, Full IgG1 (Expi293); VL = variant III) VH: EVQLVESGGGLVQPGGSLRLSCAASGFTFSPFAMSWVRQAPGKGLEWVAKISPGGSWTYYSDTVGDRFTFSLDTSKSTAYLQMNSLRAEDTAVYYCARQLWGYYALDIWGQGTLVTVSS VL: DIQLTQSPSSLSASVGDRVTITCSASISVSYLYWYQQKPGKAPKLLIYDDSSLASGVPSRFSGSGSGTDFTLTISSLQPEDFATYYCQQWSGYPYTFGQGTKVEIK    0.311

For the next question, use this binder.
IN: Please indicate Kd recorded for anti-IL-6 antibody, heavy chain T63E, G66D / light chain M32L, M50D, N52S, M88Q (antibody, IgG1, V domains shown, Full IgG1 (Expi293); VL = variant III) VH: EVQLVESGGGLVQPGGSLRLSCAASGFTFSPFAMSWVRQAPGKGLEWVAKISPGGSWTYYSDEVTDRFTFSLDTSKSTAYLQMNSLRAEDTAVYYCARQLWGYYALDIWGQGTLVTVSS VL: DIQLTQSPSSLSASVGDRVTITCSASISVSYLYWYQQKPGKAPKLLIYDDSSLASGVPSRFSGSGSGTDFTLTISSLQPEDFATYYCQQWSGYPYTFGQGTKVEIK
OUT: 0.242
